target: human muscarinic receptors M3 (Homo sapiens); construct: expressed in transfected cells; host or cells: CHO-K1 (chinese hamster ovary-K1), stably transfected; membrane preparations; experiment: biochemical; type: binding; details: read-out: % INHIBITION concentration: 1.00E−08 M
Where a name gives a salt, the structure may show the parent alone.
Kindly supply the reported inhibition at 0.01 µM values for the records listed here.
Give the value in % but do not write % after it.

Could you share which inhibition at 0.01 µM value was measured for O=C(CCC[N+]12CCC(CC1)[C@@H](OC(=O)[C@](O)(c1cccs1)C1CCCC1)C2)c1ccccc1 [Example 38, trifluoroacetate] ? 57.7

Could you share which inhibition at 0.01 µM value was measured for O=C(O[C@H]1C[N+]2(CCc3ccccc3)CCC1CC2)[C@](O)(c1ccccc1)C1CCCC1 [Example 83, trifluoroacetate] ? 60.3

Could you share which inhibition at 0.01 µM value was measured for O=C(O[C@H]1C[N+]2(CCc3ccccc3)CCC1CC2)[C@](O)(c1cccs1)C1CCCC1 [Example 25, trifluoroacetate] ? 62.6

Could you share which inhibition at 0.01 µM value was measured for O=C(O[C@H]1C[N+]2(CCCOc3ccc4c(c3)OCO4)CCC1CC2)[C@](O)(c1cccs1)C1CCCC1 [Example 46, trifluoroacetate] ? 57.6

Could you share which inhibition at 0.01 µM value was measured for N#Cc1cccc(OCCC[N+]23CCC(CC2)[C@@H](OC(=O)[C@](O)(c2cccs2)C2CCCC2)C3)c1 [Example 34, trifluoroacetate] ? 68.3

Could you share which inhibition at 0.01 µM value was measured for O=C(O[C@H]1C[N+]2(CCCOc3cccc(O)c3)CCC1CC2)[C@](O)(c1cccs1)C1CCCC1 [Example 31, trifluoroacetate] ? 54.3

Could you share which inhibition at 0.01 µM value was measured for C=CCC(O)(C(=O)O[C@H]1C[N+]2(CCCOc3ccccc3)CCC1CC2)c1cccs1 (stereo partly shown) [Example 13] ? 36

Could you share which inhibition at 0.01 µM value was measured for O=C(O[C@H]1C[N+]2(CCCc3ccccc3)CCC1CC2)[C@@](O)(c1cccs1)C1CCCC1 [Example 57, trifluoroacetate] ? 47.1

Could you share which inhibition at 0.01 µM value was measured for O=C(O[C@H]1C[N+]2(CCc3ccccc3)CCC1CC2)[C@](O)(c1ccccc1)C1CCCCC1 [Example 70, trifluoroacetate] ? 50

Could you share which inhibition at 0.01 µM value was measured for O=C(O[C@H]1C[N+]2(CCCc3ccccc3)CCC1CC2)[C@](O)(c1ccco1)C1CCCC1 [Example 67, trifluoroacetate] ? 52.5

Could you share which inhibition at 0.01 µM value was measured for O=C(O[C@H]1C[N+]2(CCCOc3ccccc3)CCC1CC2)[C@@](O)(c1cccs1)C1CCCC1 [Example 53] ? 58

Could you share which inhibition at 0.01 µM value was measured for O=C(O[C@H]1C[N+]2(CCCc3cccs3)CCC1CC2)[C@](O)(c1ccccc1)C1CCCCC1 [Example 69, trifluoroacetate] ? 43.9

Could you share which inhibition at 0.01 µM value was measured for O=C(O[C@H]1C[N+]2(CCCc3ccccc3)CCC1CC2)[C@](O)(c1cccs1)C1CCCC1 [Example 26, trifluoroacetate] ? 63.8

###

molecular target: human muscarinic receptors M3 (Homo sapiens); construct: expressed in transfected cells; host or cells: CHO-K1 (chinese hamster ovary-K1), stably transfected; membrane preparations; experiment: biochemical; type: binding; details: read-out: % INHIBITION concentration: 1.00E−08 M
Counter-ions that a name gives are not always drawn.
inhibition at 0.01 µM vs 50%: at or above is MET, below is NOT MET.

Is reported inhibition at 0.01 µM greater than or equal to 50% here: O=C(O[C@H]1C[N+]2(CCCOc3ccc(F)cc3F)CCC1CC2)[C@](O)(c1cccs1)C1CCCC1 [Example 43, trifluoroacetate] MET

Is reported inhibition at 0.01 µM greater than or equal to 50% here: CCCCCC(O)(C(=O)O[C@H]1C[N+]2(CCCOc3ccccc3)CCC1CC2)c1cccs1 (stereo partly shown) [Example 16, trifluoroacetate] NOT MET

Is reported inhibition at 0.01 µM greater than or equal to 50% here: O=C(O[C@H]1C[N+]2(CCCOc3ccccc3Cl)CCC1CC2)[C@](O)(c1cccs1)C1CCCC1 [Example 40, trifluoroacetate] MET

Is reported inhibition at 0.01 µM greater than or equal to 50% here: O=C(O[C@H]1C[N+]2(CCc3ccccc3)CCC1CC2)[C@](O)(c1ccco1)C1CCCCC1 [Example 80, trifluoroacetate] MET

Is reported inhibition at 0.01 µM greater than or equal to 50% here: O=C(O[C@H]1C[N+]2(CCCOc3ccccc3)CCC1CC2)[C@](O)(c1cccs1)C1CCCC1 MET

Is reported inhibition at 0.01 µM greater than or equal to 50% here: O=C(O[C@H]1C[N+]2(CCCc3cccs3)CCC1CC2)[C@@](O)(c1ccco1)C1CCCC1 [Example 61, trifluoroacetate] NOT MET

Is reported inhibition at 0.01 µM greater than or equal to 50% here: O=C(O[C@H]1C[N+]2(CCc3ccccc3)CCC1CC2)[C@@](O)(c1cccs1)C1CCCC1 [Example 56, trifluoroacetate] MET

Is reported inhibition at 0.01 µM greater than or equal to 50% here: O=C(O[C@H]1C[N+]2(CCCOc3ccccc3)CCC1CC2)[C@](O)(c1cccs1)C1CCCCC1 [Example 88, trifluoroacetate] NOT MET

Is reported inhibition at 0.01 µM greater than or equal to 50% here: O=C(O[C@H]1C[N+]2(CCCOc3ccccc3)CCC1CC2)[C@](O)(c1ccco1)C1CCCC1 [Example 64, trifluoroacetate] MET

Is reported inhibition at 0.01 µM greater than or equal to 50% here: Cc1ccccc1OCCC[N+]12CCC(CC1)[C@@H](OC(=O)[C@](O)(c1cccs1)C1CCCC1)C2 [Example 33, trifluoroacetate] NOT MET

Is reported inhibition at 0.01 µM greater than or equal to 50% here: O=C(O[C@H]1C[N+]2(CCCc3cccs3)CCC1CC2)[C@@](O)(c1cccs1)C1CCCC1 [Example 54, trifluoroacetate] NOT MET

###

target: human muscarinic receptors M3 (Homo sapiens, UniProt P20309); construct: expressed in transfected cells; host or cells: CHO-K1 (chinese hamster ovary-K1), stably transfected; membrane preparations; assay: biochemical; type: binding; conditions: read-out: % INHIBITION concentration: 1.00E−08 M
Sequence (P20309 whole entry): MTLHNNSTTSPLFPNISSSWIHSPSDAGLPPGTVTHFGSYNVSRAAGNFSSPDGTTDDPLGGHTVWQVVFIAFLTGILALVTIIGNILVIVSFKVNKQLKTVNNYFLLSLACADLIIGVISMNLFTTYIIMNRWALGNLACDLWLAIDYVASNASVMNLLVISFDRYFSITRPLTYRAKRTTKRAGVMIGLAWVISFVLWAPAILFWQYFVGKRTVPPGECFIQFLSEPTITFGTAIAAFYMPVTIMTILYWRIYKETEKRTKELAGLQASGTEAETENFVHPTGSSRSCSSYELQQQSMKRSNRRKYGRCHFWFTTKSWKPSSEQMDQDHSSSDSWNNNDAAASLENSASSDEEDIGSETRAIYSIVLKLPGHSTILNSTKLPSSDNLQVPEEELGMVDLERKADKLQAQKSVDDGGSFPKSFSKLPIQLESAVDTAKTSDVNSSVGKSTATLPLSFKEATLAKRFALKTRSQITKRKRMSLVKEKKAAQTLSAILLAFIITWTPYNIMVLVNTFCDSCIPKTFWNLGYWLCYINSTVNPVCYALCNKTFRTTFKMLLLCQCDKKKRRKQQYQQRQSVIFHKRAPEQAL
Counter-ions that a name gives are not always drawn.
Kindly supply the reported inhibition at 0.01 µM values for the records listed here.
Give the value in % but do not write % after it.

Return inhibition at 0.01 µM measured with human muscarinic receptors M3 (Homo sapiens, UniProt P20309) given this molecule: CC(C)[N+]1(C)[C@@H]2CC[C@H]1C[C@@H](OC(=O)C(CO)c1ccccc1)C2 (some centres unmarked) [Ipratropium bromide, reference compound] 67.2

Return inhibition at 0.01 µM measured with human muscarinic receptors M3 (Homo sapiens, UniProt P20309) given this molecule: O=C(O[C@H]1C[N+]2(CCCOc3ccc(F)cc3)CCC1CC2)[C@](O)(c1cccs1)C1CCCC1 [Example 28, trifluoroacetate] 60.6

Return inhibition at 0.01 µM measured with human muscarinic receptors M3 (Homo sapiens, UniProt P20309) given this molecule: O=C(O[C@H]1C[N+]2(CCCSc3ccccc3)CCC1CC2)[C@](O)(c1cccs1)C1CCCC1 [Example 37, trifluoroacetate] 72.6

Return inhibition at 0.01 µM measured with human muscarinic receptors M3 (Homo sapiens, UniProt P20309) given this molecule: O=C(O[C@H]1C[N+]2(CCCc3cccs3)CCC1CC2)[C@](O)(c1cccs1)C1CCCC1 [Example 23, trifluoroacetate] 63.3

Return inhibition at 0.01 µM measured with human muscarinic receptors M3 (Homo sapiens, UniProt P20309) given this molecule: O=C(O[C@H]1C[N+]2(CCCSc3ccccc3)CCC1CC2)[C@](O)(c1ccccc1)C1CCCC1 [Example 84, trifluoroacetate] 41

###

Kindly supply the reported inhibition at 0.1 µM values for the records listed here.
target: human muscarinic receptors M3 (Homo sapiens); construct: expressed in transfected cells; host or cells: CHO-K1 (chinese hamster ovary-K1), stably transfected; membrane preparations; assay: biochemical; format: binding; details: read-out: % INHIBITION concentration: 1.00E−07 M
Counter-ions that a name gives are not always drawn.
Give the value in % but do not write % after it.

Could you share which inhibition at 0.1 µM value was measured for O=C(O[C@H]1C[N+]2(CCCOc3ccccc3)CCC1CC2)[C@@](O)(c1cccs1)C1CCCC1 ? 81.5

Could you share which inhibition at 0.1 µM value was measured for O=C(O[C@H]1C[N+]2(CCCOc3ccccc3)CCC1CC2)[C@](O)(c1cccs1)C1CCCCC1 [Example 88, trifluoroacetate] ? 65.5

Could you share which inhibition at 0.1 µM value was measured for COc1ccc(OCCC[N+]23CCC(CC2)[C@@H](OC(=O)[C@](O)(c2cccs2)C2CCCC2)C3)cc1 [Example 44, trifluoroacetate] ? 84.6

Could you share which inhibition at 0.1 µM value was measured for O=C(O[C@H]1C[N+]2(CCCOc3ccc4c(c3)OCO4)CCC1CC2)[C@](O)(c1cccs1)C1CCCC1 [Example 46, trifluoroacetate] ? 87.1
